target: Protein-S-isoprenylcysteine O-methyltransferase (Homo sapiens, UniProt O60725)
Sequence (O60725 whole entry): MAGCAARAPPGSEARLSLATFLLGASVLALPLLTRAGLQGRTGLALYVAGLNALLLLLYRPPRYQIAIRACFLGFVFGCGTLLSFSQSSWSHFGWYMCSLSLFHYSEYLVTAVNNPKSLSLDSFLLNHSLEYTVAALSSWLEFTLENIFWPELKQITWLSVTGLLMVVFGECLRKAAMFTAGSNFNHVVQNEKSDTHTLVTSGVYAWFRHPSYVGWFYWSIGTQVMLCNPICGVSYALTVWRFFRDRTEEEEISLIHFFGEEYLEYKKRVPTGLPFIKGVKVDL
Readout Kind: IC50 (µM)

| Given Smiles | Meas Value |
| --- | --- |
| CCCCCCCCn1cc(CC(N)=O)c2cc(-c3ccc(C)cc3)ccc21 | 10.7 |
| NC(=O)Cc1cn(Cc2ccccc2)c2ccc(-c3cccc(F)c3)cc12 | 10.7 |
| COc1ccccc1-c1ccc2c(c1)c(CC(N)=O)cn2CC1CC1 | 16.2 |
| CCCCCCCCn1cc(CC(N)=O)c2cc(-c3cc(C(F)(F)F)cc(C(F)(F)F)c3)ccc21 | 37.2 |
| Cc1ccc(-c2ccc3c(c2)c(CC(N)=O)cn3Cc2ccc3ccccc3c2)cc1 | 19.5 |
| CCOc1cccc(-c2ccc3c(c2)c(CC(N)=O)cn3Cc2cccc(C(F)(F)F)c2)c1 | 4.9 |
| COc1ccccc1-c1ccc2c(c1)c(CC(N)=O)cn2CC(C)C | 21.9 |
| NC(=O)Cc1c[nH]c2ccc(-c3cccc(F)c3)cc12 | 39.8 |
| Cc1cccc(-c2ccc3[nH]cc(CC(N)=O)c3c2)c1 | 100 |

Data credit: ChEMBL document CHEMBL1139053
